Reported values: pIC50 for Nicotinamide phosphoribosyltransferase (Homo sapiens, UniProt P43490), one per item.
pIC50: −log10 of the molar value.

[Q] Given `COc1ccc(CCNC(=O)/C=C/c2cccnc2)cc1OC` , state its recorded pIC50.
[A] < 5.00

[Q] Can you check `COc1ccc(CCNC(=O)c2sccc2C)cc1OC` next?
[A] 5.28

[Q] Can you check `O=C(NCCCn1ccnc1)c1cc2ccccc2o1` next?
[A] 6.00

[Q] Can you check `O=C(NCCCn1ccnc1)c1ccc([N+](=O)[O-])s1` next?
[A] < 5.00

[Q] Can you check `O=C(/C=C/c1cccnc1)NCCCn1ccnc1` next?
[A] < 5.00

[Q] Can you check `Cc1ccsc1C(=O)NCCCn1ccnc1` next?
[A] < 5.00

* * *

Test system: MDA-MB-231
test-details: Cytotoxicity against human MDA-MB-231 cells after 72 hrs by MTT assay
Type: functional, cell-based
test-context: MDA-MB-231, 72 h
Assignment: determine reported IC50 for the given molecules.

[Q] Given `Cc1ccsc1C(=O)NCCCn1ccnc1` , state its recorded IC50.
[A] > 276 µM

[Q] Can you check `COc1ccc(CCNC(=O)c2sccc2C)cc1OC` next?
[A] 191 µM

[Q] Can you check `COc1ccc(CCNC(=O)c2ccc(C)s2)cc1OC` next?
[A] > 307 µM

[Q] Can you check `Cc1ccc(C(=O)NCCCn2ccnc2)s1` next?
[A] > 320 µM

[Q] Can you check `COc1ccc(CCNC(=O)c2cc3ccccc3o2)cc1OC` next?
[A] > 371 µM

[Q] Can you check `COc1ccc(CCNC(=O)c2cc3ccccc3s2)cc1OC` next?
[A] > 293 µM

[Q] Can you check `COc1ccc(CCNC(=O)/C=C/c2cccnc2)cc1OC` next?
[A] > 401 µM

[Q] Can you check `COc1ccc(CCNC(=O)CNC(=O)c2sccc2C)cc1OC` next?
[A] > 328 µM

[Q] Can you check `O=C(/C=C/c1cccnc1)NCCCn1ccnc1` next?
[A] > 276 µM

[Q] Can you check `O=C(NCCCn1ccnc1)c1cc2ccccc2s1` next?
[A] 36 µM

[Q] Can you check `COc1ccc(CCNC(=O)c2ccc([N+](=O)[O-])s2)cc1OC` next?
[A] > 328 µM

[Q] Can you check `COc1ccc(CCNC(=O)CNC(=O)c2ccc(C)s2)cc1OC` next?
[A] > 401 µM

[Q] Can you check `O=C(NCCCn1ccnc1)c1ccc([N+](=O)[O-])s1` next?
[A] > 390 µM

[Q] Can you check `O=C(NCCCn1ccnc1)c1cc2ccccc2o1` next?
[A] 10 µM
